assay_explanation: in vivo
run_conditions: mouse, iv, 0.5 mg/kg
measurement_type: clearance (mL/min/kg)
Response body: numeric value in mL/min/kg, unit text excluded.

In: Please give the measured clearance for this molecule: O=C(O)Cc1cccc(OCCCN(Cc2cccc(C(F)(F)F)c2Cl)CC(c2ccccc2)c2ccccc2)c1
Out: 8

In: Same question for CCCc1c(OCCCN(C)c2cnc(CC(=O)O)cn2)ccc2c(C(F)(F)F)noc12 please.
Out: 17

In: Same question for CCCc1c(OCCCN2C(=O)Cc3cc(CC(=O)O)ccc32)ccc2c(C(F)(F)F)noc12 please.
Out: 46

In: Same question for CCCc1c(OCCCn2ccc3cc(CC(=O)O)ccc32)ccc2c(C(F)(F)F)noc12 please.
Out: 18

In: Same question for CCCc1c(OCCCN(C)c2ncc(CC(=O)O)s2)ccc2c(C(F)(F)F)noc12 please.
Out: 13
